For each entry below, report its pIC50 value.
- Tested on: Plasmodium falciparum
- Test: Antiplasmodial activity against chloroquine-resistant blood-stage Plasmodium falciparum W2 after 48 hrs by flow cytometric analysis
- Format: functional, organism-based
- Reported conditions: W2, 48 h
Numbers only, as −log10 of the molar value.

CC(C)C[C@@H](NC(=O)/C=C/c1ccccc1)C(=O)N[C@H](CCc1ccccc1)C(=O)Nc1ccnc2cc(Cl)ccc12 :: 5.31

For the next question, use this compound.
[ask] Tell me pIC50 reported for Cc1ccc(/C=C/C(=O)N[C@H](CC(C)C)C(=O)N[C@H](CCc2ccccc2)C(=O)Nc2ccnc3cc(Cl)ccc23)cc1
[reply] 5.71
